Reference source for all entries: the supplement of paper PMC10981050

- Tested on: K562;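 also: after 48 h exposure read by CellTiter-Glo luminescence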
- PROTOCOL_DETAILS: cell viability relative to vehicle control; higher = less cytotoxic
- EXPERIMENTAL_PARAMETERS: 10 µM; SRSF2 genotype: SRSF2 wt/wt
Reported values of cell viability for individual entries

Please give the measured cell viability for this compound: Cn1cc(C2=C(c3cn(C4CCN(Cc5ccccn5)CC4)c4ccccc34)C(=O)NC2=O)c2ccccc21
91.3%

Please give the measured cell viability for this compound: CC(C)C1=CC(=O)[C@@](C)(C2[C@H](O)C[C@@]3(C)[C@@H]4CC=C5[C@@H](CC[C@@H](OC6OCC(O)C(O)C6OC6OC(C)C(O)C(O)C6O)C5(C)C)[C@]4(C)C(=O)C[C@]23C)O1 (stereo partly drawn)
89.6%
